# Assay procedure: Plasma concentrations and pharmacokinetic parameters after topical ocular, subcutaneous and intravitreal administration
# Format: in vivo, New Zealand White rabbits
# Stated conditions: New Zealand White, rabbit, plasma, other: intravitreal, 1.54 mg/kg, plasma; intravitreal 2.5 mg/eye (~1.54 mg/kg), suspension
Value type: MRT last
# output: numeric value plus its unit

Problem: Requested read-out: MRT last. Entry: COC(=O)N[C@@H](Cc1ccccc1)C(=O)N[C@@H](Cc1ccc(NS(=O)(=O)O)cc1)c1csc(-c2cccs2)n1 [Compound 1 free acid]
Solution: 19.1 h

###

# Assay procedure: Ocular tissue concentrations (aqueous humor, vitreous humor, iris, retina, choroid, cornea) after topical ocular, subcutaneous and intravitreal administration
# Format: in vivo, New Zealand White rabbits
# Stated conditions: New Zealand White, rabbit, choroid homogenate, subcutaneous, 5 mg/kg/dose, Choroid homogenate, 1 hr, OS; free acid, subcutaneous 5 mg/kg/dose, Group 3; read-out: Choroid Conc. (ng/mL) OS
# Procedure: To measure the concentration of Compound 1 in plasma and ocular tissues following topical ocular, subcutaneous, and intravitreal administration, New Zealand White rabbits were administered Compound 1, and plasma and ocular samples were collected at pre-determined time points. […] Ocular tissue samples from both eyes of each animal were collected and weights were recorded. Plasma and ocular tissue sample concentrations of Compound 1 were determined by LC-MS/MS. […]
Value type: concentration at 1 h (ng/mL)
Please reply with the bare figure in ng/mL and do not write the unit itself.

Problem: Requested read-out: concentration at 1 h. Entry: COC(=O)N[C@@H](Cc1ccccc1)C(=O)N[C@@H](Cc1ccc(NS(=O)(=O)O)cc1)c1csc(-c2cccs2)n1 [Compound 1]
Solution: 8.01

###

# Assay procedure: Plasma concentrations and pharmacokinetic parameters after topical ocular, subcutaneous and intravitreal administration
# Assay type: in vivo, New Zealand White rabbits
# Stated conditions: New Zealand White, rabbit, plasma, subcutaneous, 5 mg/kg/dose, subcutaneous 5 mg/kg/dose, suspension; 4.0 hr; read-out: plasma Conc., individual rabbit
Value type: concentration at 4 hr (ng/mL)
Please reply with the bare figure in ng/mL and do not write the unit itself.

Problem: Requested read-out: concentration at 4 hr. Entry: COC(=O)N[C@@H](Cc1ccccc1)C(=O)N[C@@H](Cc1ccc(NS(=O)(=O)O)cc1)c1csc(-c2cccs2)n1 [Compound 1 free acid]
Solution: 111

###

# Assay procedure: Ocular tissue concentrations (aqueous humor, vitreous humor, iris, retina, choroid, cornea) after topical ocular, subcutaneous and intravitreal administration
# Assay type: in vivo, New Zealand White rabbits
# Stated conditions: New Zealand White, rabbit, iris, subcutaneous, 5 mg/kg/dose, Iris, 0.5 hr; sodium salt, subcutaneous 5 mg/kg/dose, Group 2; read-out: Iris Average
Value type: concentration at 0.5 h (ng/g)
Please reply with the bare figure in ng/g and do not write the unit itself.

Problem: Requested read-out: concentration at 0.5 h. Entry: "COC(=O)N[C@@H](Cc1ccccc1)C(=O)N[C@@H](Cc1ccc(NS(=O)(=O)O)cc1)c1csc(-c2cccs2)n1"
Solution: 459

###

# Assay procedure: Ocular tissue concentrations (aqueous humor, vitreous humor, iris, retina, choroid, cornea) after topical ocular, subcutaneous and intravitreal administration
# Format: in vivo, New Zealand White rabbits
# Stated conditions: New Zealand White, rabbit, choroid homogenate, subcutaneous, 5 mg/kg/dose, Choroid homogenate, 1 hr, OD; free acid, subcutaneous 5 mg/kg/dose, Group 3; read-out: Choroid Conc. (ng/mL) OD
Value type: concentration at 1 h (ng/mL)
Please reply with the bare figure in ng/mL and do not write the unit itself.

Problem: Requested read-out: concentration at 1 h. Entry: "COC(=O)N[C@@H](Cc1ccccc1)C(=O)N[C@@H](Cc1ccc(NS(=O)(=O)O)cc1)c1csc(-c2cccs2)n1"
Solution: 6.04
